What inhibition was measured for each of the following?
- System Under Test: UniProt:Q9Y5N1
- Sequence (Q9Y5N1 whole entry): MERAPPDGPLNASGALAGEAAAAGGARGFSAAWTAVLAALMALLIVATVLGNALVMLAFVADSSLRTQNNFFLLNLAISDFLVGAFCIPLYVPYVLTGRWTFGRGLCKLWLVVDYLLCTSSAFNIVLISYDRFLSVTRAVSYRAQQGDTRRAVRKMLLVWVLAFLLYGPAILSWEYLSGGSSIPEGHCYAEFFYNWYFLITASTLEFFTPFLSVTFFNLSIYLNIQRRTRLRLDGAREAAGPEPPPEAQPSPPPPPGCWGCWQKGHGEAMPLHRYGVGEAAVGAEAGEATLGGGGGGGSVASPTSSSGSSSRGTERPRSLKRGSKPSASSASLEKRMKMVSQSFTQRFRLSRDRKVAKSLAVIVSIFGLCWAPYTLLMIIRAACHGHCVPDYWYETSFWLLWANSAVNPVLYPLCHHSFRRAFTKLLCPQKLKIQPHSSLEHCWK
- Experimental Context: Compound concentration 10 µM
- Description: PDSP Primary Binding target: HRH3 - Compounds are tested at 10 uM concentration, plate are incubated at room temperature in the dark for 90 minutes. Reaction are stopped by vacuum filtration onto 0.3% polyethyleneimine soaked filter mats using Filtermate harvester. Scintilation cocktail is then melted onto microwave-dried filters on a hot plate and the radio activity is counted in Microbia counter.

{"Compound String": "C[C@H](CO)Nc1nc(SCc2cccc(Cl)c2F)nc2[nH]c(=O)sc12", "inhibition": "5.16%"}
{"Compound String": "COc1ccc(Br)cc1S(=O)(=O)NC(=O)/C=C/c1ccccc1Cc1ccc2ccccc2c1", "inhibition": "5.89%"}
{"Compound String": "O=C(O)C1CN(Cc2ccc(OCc3ccc(Cl)c(Cl)c3)cc2)C1", "inhibition": "-4.42%"}
{"Compound String": "Cc1c(C(=O)NC2CCCCC2)sc2nc3ccc(N)cc3n12", "inhibition": "4.62%"}

Kindly review the next molecule as well.
Given item CCCn1c(=O)c2[nH]c(-c3cnn(Cc4cccc(C(F)(F)F)c4)c3)nc2n(CC)c1=O , the value recorded as its inhibition is 3.01%

====

- System Under Test: 5-hydroxytryptamine receptor 2A (Homo sapiens)
- Experimental Context: Compound concentration 10 µM; call rule not given here
Please state which outcome applies, choosing from 1 (yes) for active, 0 (no) for inactive

Use the examples below as a reference point.
{"Compound": "O=S1(=O)c2cccc3cccc(c23)N1CCCN1CCN(c2ccc(F)cc2)CC1", "System Under Test": "5-hydroxytryptamine receptor 2A (Homo sapiens)", "Category Label": "1 (yes)"}
{"Compound": "Cc1ccccc1C(=O)Nc1ccc(C(=O)N2CCCC(O)c3cc(Cl)ccc32)c(C)c1 (centres undefined)", "System Under Test": "5-hydroxytryptamine receptor 2A (Homo sapiens)", "Category Label": "0 (no)"}
{"Compound": "Cc1c(P(=S)(c2ccccc2)c2ccccc2)n2ccccc2[n+]1C/C=C/c1ccccc1", "System Under Test": "5-hydroxytryptamine receptor 2A (Homo sapiens)", "Category Label": "1 (yes)"}
{"Compound": "C[C@@H](NCCc1ccc(O)cc1)[C@@H](O)c1ccc(O)cc1 (relative stereo)", "System Under Test": "5-hydroxytryptamine receptor 2A (Homo sapiens)", "Category Label": "0 (no)"}
{"Compound": "CCc1nn2c(C)cc(C)nc2c1Cc1ccc(-c2nnc(C3CCNCC3)o2)cc1", "System Under Test": "5-hydroxytryptamine receptor 2A (Homo sapiens)", "Category Label": "0 (no)"}
{"Compound": "CC(C)[C@H](CO)Nc1nc(Nc2cccc(Cl)c2)c2ncn(C(C)C)c2n1", "System Under Test": "5-hydroxytryptamine receptor 2A (Homo sapiens)", "Category Label": "0 (no)"}
{"Compound": "Cc1nc(-c2ccc(C(F)(F)F)cc2)sc1COc1ccc([C@H](CC(=O)O)c2ccon2)cc1", "System Under Test": "5-hydroxytryptamine receptor 2A (Homo sapiens)", "Category Label": "0 (no)"}
{"Compound": "N=C(N)SCCc1c[nH]cn1", "System Under Test": "5-hydroxytryptamine receptor 2A (Homo sapiens)", "Category Label": "0 (no)"}
{"Compound": "Cc1nc(-c2ccc(-c3ccc(C(=O)N4CCc5cc6c(cc54)C4(CCN(C)CC4)CO6)cc3)c(C)c2)no1", "System Under Test": "5-hydroxytryptamine receptor 2A (Homo sapiens)", "Category Label": "1 (yes)"}
{"Compound": "CN1CCC(C(=O)c2cccc(NC(=O)c3c(F)cc(F)cc3F)n2)CC1", "System Under Test": "5-hydroxytryptamine receptor 2A (Homo sapiens)", "Category Label": "0 (no)"}

Problem: Tell me the recorded outcome of this test for Cc1cc(NC(=O)Nc2ccc(N(C)C)cc2)c2cc(F)cc(F)c2n1 .
Result: 0 (no)

Problem: Tell me the recorded outcome of this test for Cc1c(F)cccc1NC(=O)Nc1ccc(Cl)c(S(=O)(=O)[C@H]2CCCNC2)c1O .
Result: 0 (no)

Problem: Tell me the recorded outcome of this test for C/C(=N\NC(=O)[C@@H]1C(=O)NC[C@H]1c1ccccc1)c1cccc(Br)c1 .
Result: 1 (yes)

Problem: Tell me the recorded outcome of this test for Cc1cc([C@@H](C)Nc2cccc(-c3cc(C)c(C(=O)N[C@@H](C)C(=O)O)c(C)c3)c2)ccc1Cl .
Result: 0 (no)

Problem: Tell me the recorded outcome of this test for Nc1nc(NCCc2ccc(O)cc2)nc2nc(-c3ccco3)nn12 .
Result: 0 (no)

Problem: Tell me the recorded outcome of this test for O=C(O)c1cc(-c2ccc(C3CCNCC3)cc2)c2ccc(-c3ccc(C(F)(F)F)cc3)cc2c1 .
Result: 0 (no)

Problem: Tell me the recorded outcome of this test for CN1C2CCC1CC(OC(c1ccc(F)cc1)c1ccc(F)cc1)C2 (centres undefined) .
Result: 1 (yes)

Problem: Tell me the recorded outcome of this test for CSc1ccc(C(=O)N[C@@H]2CCCC[C@@H]2NC(=O)CNC(=O)c2cc(C(F)(F)F)ccc2NC(=O)NC(C)C)cc1 .
Result: 0 (no)

Problem: Tell me the recorded outcome of this test for FC(F)(F)c1cccc(-c2noc(-c3cc(-c4ccccc4)c(C(F)(F)F)s3)n2)c1 .
Result: 0 (no)
